B1: TPR 5TU (parent)
chain: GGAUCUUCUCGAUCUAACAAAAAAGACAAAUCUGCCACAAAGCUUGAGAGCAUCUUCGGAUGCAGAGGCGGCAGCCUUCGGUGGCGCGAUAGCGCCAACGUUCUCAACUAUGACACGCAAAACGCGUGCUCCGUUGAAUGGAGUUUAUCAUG

variants of: B1; assay: polymerase ribozyme fitness, log enrichment relative to wild type (log ratio); higher = more active; in vitro selection for triplet polymerase activity
Variants at the floor of the assay were thinned out.
reported.metric: polymerase ribozyme fitness (log ratio)

variant.spec: U7G A23C A28U C38G A121G
recorded.measurement: ≤ -4.2

variant.spec: C63A A64C C72U A89U U130G
recorded.measurement: ≤ -4.2

variant.spec: U6A G25A A26C G50U A52G C76G C118G G136A
recorded.measurement: ≤ -4.2
